Cited source for all entries: the supplement of paper PMC7411640

- System: MDA-MB-468
- assay: phospho-S6 immunofluorescence (DAPI-normalised), per-plate z-score; higher = higher phospho-S6 signal (less pathway suppression)
- test settings: co-treatment: vehicle; 24 h
We use 0.2 as the dividing line for phospho-S6 immunofluorescence (z-score): on or above the line is Fulfilled, below is Not fulfilled.

Some entries whose results are on file:
compound	label
O=c1[nH]c2ccccc2n1CCCN1CCC(n2c(=O)[nH]c3cc(Cl)ccc32)CC1 [Domperidone] (compound 10 µM)	Fulfilled
CN1[C@@H]2CC[C@H]1C[C@@H](OC(=O)[C@H](CO)c1ccccc1)C2 [L-Hyoscyamine] (compound 10 µM)	Fulfilled

Switching to the query record.
### Prompt Please tell me: is the compound CCN(CC)C(=O)c1ccc(C2=CC3(CCNCC3)Oc3cccc(O)c32)cc1 (compound 10 µM) at or over 0.2 in terms of phospho-S6 immunofluorescence (z-score)?
### Response Fulfilled
